tested on: 328373-195-R-J1-PDC complex spheroids, viability % test/control; test: Anticancer human tumor 328373-195-R-J1-PDC patient-derived head and neck squamous carcinoma cell line growth inhibition [CLK]; conditions: second compound 0.0316 µM; first compound 0.1 µM; hits give low values;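 further: spheroids exposed to the agents for 7 days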
Lab note: cut-off is 60%. Strictly less in viability, T/C is TRUE. Exactly 60% or more is FALSE.

Solved cases (5 shown):
C=C(F)C(=O)N1CCN(c2nc(OCC3CCCN3C)nc3c2CCN(c2cccc4cccc(Cl)c24)C3)CC1CC#N (stereo unspecified) + CNC(=O)c1ccc(Nc2nc(OC3CCCC3)c3c(-c4ccc5nc(C)oc5c4)c[nH]c3n2)c(OC)c1 : TRUE
COC1C=CCC(C)C(C)S(=O)(=O)NC(=O)c2ccc3c(c2)N(CC2CCC21)CC1(CCCc2cc(Cl)ccc21)CO3 (stereo unspecified) + CN1CCN(c2cc(C(=O)Nc3cc4cc(-c5cnn(C)c5)ccc4cn3)ccn2)CC1 : FALSE
CC1COCCN1c1cc(C2(S(C)(=N)=O)CC2)nc(-c2ccnc3[nH]ccc23)n1 (stereo unspecified) + CNC(=O)c1ccc(Nc2nc(OC3CCCC3)c3c(-c4ccc5nc(C)oc5c4)c[nH]c3n2)c(OC)c1 : TRUE
O=c1[nH]cc(F)c(=O)[nH]1 + CN1CCN(c2cc(C(=O)Nc3cc4cc(-c5cnn(C)c5)ccc4cn3)ccn2)CC1 : TRUE
COc1ccc([C@@H](O)c2cc(-c3ncnc4cc(N5CCOCC5)ccc34)c(F)cc2Cl)nn1 + CNC(=O)c1ccc(Nc2nc(OC3CCCC3)c3c(-c4ccc5nc(C)oc5c4)c[nH]c3n2)c(OC)c1 : TRUE

input: Threshold test, viability, T/C < 60%: COc1ccc([C@@H](O)c2cc(-c3ncnc4cc(N5CCOCC5)ccc34)c(F)cc2Cl)nn1 + CN1CCN(c2cc(C(=O)Nc3cc4cc(-c5cnn(C)c5)ccc4cn3)ccn2)CC1
output: FALSE

input: Threshold test, viability, T/C < 60%: CC(=O)O[C@H]1C(=O)[C@@]2(C)[C@H]([C@H](OC(=O)c3ccccc3)[C@]3(O)C[C@H](OC(=O)[C@H](O)[C@@H](NC(=O)c4ccccc4)c4ccccc4)C(C)=C1C3(C)C)[C@]1(OC(C)=O)CO[C@@H]1C[C@@H]2O + CN1CCN(c2cc(C(=O)Nc3cc4cc(-c5cnn(C)c5)ccc4cn3)ccn2)CC1
output: TRUE

input: Threshold test, viability, T/C < 60%: Nc1ccn(C2OC(CO)C(O)C2(F)F)c(=O)n1 (stereo unspecified) + CN1CCN(c2cc(C(=O)Nc3cc4cc(-c5cnn(C)c5)ccc4cn3)ccn2)CC1
output: TRUE

input: Threshold test, viability, T/C < 60%: CCN1CCN(Cc2ccc(Nc3ncc(F)c(-c4cc(F)c5nc(C)n(C(C)C)c5c4)n3)nc2)CC1 + CN1CCN(c2cc(C(=O)Nc3cc4cc(-c5cnn(C)c5)ccc4cn3)ccn2)CC1
output: FALSE

input: Threshold test, viability, T/C < 60%: Nc1ccn(C2OC(CO)C(O)C2(F)F)c(=O)n1 (stereo unspecified) + CNC(=O)c1ccc(Nc2nc(OC3CCCC3)c3c(-c4ccc5nc(C)oc5c4)c[nH]c3n2)c(OC)c1
output: TRUE

input: Threshold test, viability, T/C < 60%: CC(Nc1ccc2c(c1)OCCn1cc(N3C(=O)OCC3C(F)F)nc1-2)C(N)=O (stereo unspecified) + CNC(=O)c1ccc(Nc2nc(OC3CCCC3)c3c(-c4ccc5nc(C)oc5c4)c[nH]c3n2)c(OC)c1
output: FALSE

Data origin: PubChem BioAssay AID2060620
